System: PC-3 prostate
PROCEDURE_SUMMARY: NCI tumour cell line growth inhibition, 48 h
For each record, write down the corresponding TGI.

Bench note: what TGI did C/C=C1\C(=O)OC2CCN3CCC(COC(=O)C(C)(O)C(C)C1O)C23 (centres undefined) show?
> 100 µM

Bench note: what TGI did Cc1cc2c(c(=O)n1C)SCC2 show?
> 100 µM

Bench note: what TGI did O=C(c1ccco1)N(C(=S)OC12CC3CC(CC(C3)C1)C2)c1ccccc1 show?
60.3 µM

Bench note: what TGI did c1ccc(-c2nnn(CCN3CCCCC3)n2)cc1 show?
> 100 µM

Bench note: what TGI did Cc1nc(N)nc2ccccc12 show?
> 100 µM

Bench note: what TGI did COc1c(C)c(C/C=C(\C)CC/C=C(\C)CCC=C(C)C)c(OC)c(OC)c1OC show?
> 100 µM

Bench note: what TGI did Nc1[nH]c(=O)ncc1CO show?
> 100 µM

Bench note: what TGI did CCOP(=O)(OCC)/C(C#N)=C/c1cccn1Cc1ccccc1 show?
> 100 µM

Bench note: what TGI did O=C1c2ccccc2C(=O)N1c1nc(-c2ccc(Cl)cc2)cc(N2N=C(c3ccc(Br)cc3)CC2c2ccccc2)n1 (centres undefined) show?
> 27.5 µM

Bench note: what TGI did CC1=C(C(=O)Nc2ccc(Cl)c(Cl)c2)C(c2ccccc2O)NC(=O)N1 (centres undefined) show?
> 50 µM

Bench note: what TGI did O=C1C=CC(=O)c2c(O)c(N3CCN(CCOCCO)CC3)c(Cl)c(O)c21 show?
3.23 µM [middle of 4 runs]

Bench note: what TGI did CC1OC2OC3C(OCC(O)C3O)OC(=O)[C@]34CCC(C)(C)CC3C3=CCC5[C@@]6(C)C[C@H](O)[C@H](OC7OC(CO)C(O)C(O)C7OC7OCC(OC(=O)CC(C)(O)CC(=O)OC1C(OC1OC(CO)C(O)C(O)C1O)C2O)C(O)C7O)[C@@](C)(CO)C6CC[C@@]5(C)[C@]3(C)CC4 (some centres undefined) show?
16.9 µM

Bench note: what TGI did CN(C)c1ccc(/C=C2\N=C(c3ccccc3)N(c3ccc4c(c3)Sc3cc(N5C(=O)/C(=C/c6ccc(N(C)C)cc6)N=C5c5ccccc5)ccc3N4)C2=O)cc1 show?
34.4 µM

Bench note: what TGI did CSc1nc(NC(C)C)c2c(n1)Sc1nc3ccccc3n1C2O (centres undefined) show?
> 100 µM

Bench note: what TGI did O=C(/C=C/c1cccs1)c1ccccc1Cl show?
34.5 µM

Bench note: what TGI did C=C(C)[C@@H]1CC[C@]2(C(=O)O)CC[C@]3(C)[C@H](CCC4[C@@]5(C)CC[C@H](C(=O)/C=C/c6ccc(O)c(O)c6)C(C)(C)[C@@H]5CC[C@]43C)[C@@H]12 (some centres undefined) show?
21.8 µM

Bench note: what TGI did CS(=O)(=O)NC12CCC(c3ccccc31)c1ccccc12 show?
> 100 µM

Bench note: what TGI did CO[C@@]12[C@@H]3NC3CN1C1=C(C(=O)C(N)=C(C)C1=O)[C@@H]2COC(N)=O (some centres undefined) show?
37.1 µM

Bench note: what TGI did C/C(Nc1ccc(Cl)cc1Cl)=C1/CCOC1=O show?
> 100 µM

====

For each record, write down the corresponding TGI.
System: NCI-H522 lung
PROCEDURE_SUMMARY: NCI tumour cell line growth inhibition, 48 h

Bench note: what TGI did O=C(NNCc1ccc(Cl)cc1)Nc1cccc2ccccc12 show?
> 100 µM

Bench note: what TGI did CN1CCN(c2nc(-c3ccncc3)nc3sc4c(c23)CCCCCC4)CC1 show?
24.6 µM

Bench note: what TGI did COC(=O)[C@@H]1CN(C(=O)c2ccccc2)C(=O)N1C(=O)OCc1ccccc1 show?
> 100 µM

Bench note: what TGI did CN(C)C(=S)Oc1ccc2ccc(=O)oc2c1 show?
> 100 µM

Bench note: what TGI did Cc1cc(Cl)ccc1NS(=O)(=O)c1ccc(-c2cnc(C3CC3)o2)cc1 show?
4.34 µM

Bench note: what TGI did CC1CC2(C)CC(=O)C1C1C(=O)N(CCN3CCCCC3)C(=O)C12 (stereo unspecified) show?
> 100 µM

Bench note: what TGI did CNC(=O)CN(CC(N)=O)C(N)=O show?
> 100 µM

Bench note: what TGI did Cc1cc(C(O)CN(C)C)cc2c1ccc1cc(C(C)C)ccc12 (stereo unspecified) show?
3.72 µM

Bench note: what TGI did C#CCC1(C(=O)OCC)C(=O)c2ccccc2N(C)C1=O (stereo unspecified) show?
27.3 µM

Bench note: what TGI did COC(OC)c1cc2c(cc1C(=O)[C@@]13CCC[C@@H]1NC(=O)O3)OCO2 show?
> 100 µM

Bench note: what TGI did C/C=C1\C(=O)OC2CCN3CCC(COC(=O)C(C)(O)C(C)C1O)C23 (stereo unspecified) show?
> 100 µM
